Molecular target: T1, human IL-4Rα (human, UniProt P24394 26-232)
T1 construct: also called Hu IL-4Rα; hIL-4Rα
T1 sequence: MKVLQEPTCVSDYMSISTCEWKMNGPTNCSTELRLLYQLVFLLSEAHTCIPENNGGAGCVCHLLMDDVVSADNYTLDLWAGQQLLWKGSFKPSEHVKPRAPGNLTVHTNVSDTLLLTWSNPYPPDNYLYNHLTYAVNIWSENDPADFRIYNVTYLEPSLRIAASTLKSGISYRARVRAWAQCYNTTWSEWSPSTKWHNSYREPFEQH
Experiment: KinExA
measured endpoint: KD Relative to Dupilumab

binder: Construct 31 (mAb443) (antibody, IgG4, V domains shown, VH/VL only) VH: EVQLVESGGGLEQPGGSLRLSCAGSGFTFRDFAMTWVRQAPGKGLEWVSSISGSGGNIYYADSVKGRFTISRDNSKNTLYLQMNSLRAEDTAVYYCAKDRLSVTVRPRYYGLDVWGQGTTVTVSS VL: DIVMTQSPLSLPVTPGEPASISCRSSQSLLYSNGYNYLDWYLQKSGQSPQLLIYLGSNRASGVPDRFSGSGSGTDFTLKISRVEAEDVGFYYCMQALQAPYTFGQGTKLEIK
result: 0.252
